This listing pairs compounds with measured flash point.

COMPOUND: CC(C)OC(C)C(Cl)Cl (stereo not given)
flash point / °C: 85.00
//
COMPOUND: C=C/C=C/C
flash point / °C: -29.00
//
COMPOUND: CC(C)=CCC1CCCC1=O (stereo not given)
flash point / °C: 23.00
//
COMPOUND: CN(CCO)CCO [2-[2-hydroxyethyl(methyl)amino]ethanol]
flash point / °C: 127.00
//
COMPOUND: CN=C=S [methylimino(sulfanylidene)methane]
flash point / °C: 35.00
//
COMPOUND: CC(O)CCl (stereo not given)
flash point / °C: 52.00
//
COMPOUND: Nc1cccc(C(F)(F)F)c1
flash point / °C: 85.00
//
COMPOUND: O=C(OCC1CO1)C1CCCCC1C(=O)OCC1CO1 (stereo not given) [bis(oxiran-2-ylmethyl) cyclohexane-1,2-dicarboxylate]
flash point / °C: 190.00
//
COMPOUND: O=C1CCCc2ccccc21 [3,4-dihydro-2H-naphthalen-1-one]
flash point / °C: 129.00
//
COMPOUND: Cc1ccccc1C
flash point / °C: 17.00

* * *

This listing pairs molecules with measured flash point.
MEASUREMENT_KIND: flash point (°C)

MOLECULE: CC(C)C1=CC2=CC[C@@H]3[C@](C)(CCC[C@@]3(C)C(=O)O)[C@H]2CC1
REPORTED: 187.00
--
MOLECULE: c1ccc(Nc2ccccc2)cc1
REPORTED: 153.00
--
MOLECULE: CN(C)CCN(C)C
REPORTED: 10.00
--
MOLECULE: CC(Cl)CCl.ClC=CCCl (centres undefined) [1,2-dichloropropane;(E)-1,3-dichloroprop-1-ene]
REPORTED: 17.00
--
MOLECULE: CC(=O)CC(=O)Nc1ccccc1 [3-oxo-N-phenylbutanamide]
REPORTED: 163.00
--
MOLECULE: Clc1cccc(Cl)c1
REPORTED: 63.00
--
MOLECULE: Cc1ccc(N)cc1Cl
REPORTED: 100.00
--
MOLECULE: N=C(N)c1ccc(OCCCCCOc2ccc(C(=N)N)cc2)cc1 [4-[5-(4-carbamimidoylphenoxy)pentoxy]benzenecarboximidamide]
REPORTED: 103.00
--
MOLECULE: Cc1ccccc1O
REPORTED: 81.00

* * *

This listing pairs compounds with measured flash point.
MEASUREMENT_KIND: flash point (°C)

COMPOUND: O=[N+]([O-])C1CCCC1
MEASUREMENT_KIND: flash point
REPORTED: 67
//
COMPOUND: C=CCCCCCCC
MEASUREMENT_KIND: flash point
REPORTED: 25
//
COMPOUND: CCCN(CCC)CCC
MEASUREMENT_KIND: flash point
REPORTED: 35
//
COMPOUND: C=CCC(C)CCC (stereo not drawn)
MEASUREMENT_KIND: flash point
REPORTED: 2
//
COMPOUND: CCN(CC)c1ccccc1
MEASUREMENT_KIND: flash point
REPORTED: 88
//
COMPOUND: CCC(Cl)Cl
MEASUREMENT_KIND: flash point
REPORTED: 7
//
COMPOUND: C=CCCBr
MEASUREMENT_KIND: flash point
REPORTED: 9
//
COMPOUND: CCC(=O)OCc1ccco1 [furfurylpropanoate]
MEASUREMENT_KIND: flash point
REPORTED: 82
//
COMPOUND: CC(O)CCO (stereo not drawn)
MEASUREMENT_KIND: flash point
REPORTED: 109
//
COMPOUND: CCCC(C)S (stereo not drawn)
MEASUREMENT_KIND: flash point
REPORTED: 15
//
COMPOUND: CCC(C)CC(CC)CC (stereo not drawn)
MEASUREMENT_KIND: flash point
REPORTED: 31
//
COMPOUND: CCCCCCCCl
MEASUREMENT_KIND: flash point
REPORTED: 41
//
COMPOUND: CCOC(=O)c1ccccc1C(=O)OCC [diethylphthalate]
MEASUREMENT_KIND: flash point
REPORTED: 160

* * *

This listing pairs compounds with measured flash point.
MEASUREMENT_KIND: flash point

COMPOUND: CCCCOCC1CO1 (configuration not stated)
REPORTED: 41.00 °C
//
COMPOUND: CC(C)(C)c1cccc(C(C)(C)C)n1
REPORTED: 72.00 °C
//
COMPOUND: ClCCOCCCl
REPORTED: 55.00 °C
//
COMPOUND: OCc1ccco1
REPORTED: 83.33 °C
//
COMPOUND: Nc1ccccc1Cl
REPORTED: 98.00 °C
//
COMPOUND: CCCCCCCCCCO
REPORTED: 104.44 °C
//
COMPOUND: CCCCC(CC)(CO)CO
REPORTED: 113.00 °C
//
COMPOUND: CN(C)C=O [N,N-dimethylformamide]
REPORTED: 57.00 °C
//
COMPOUND: OCCCO
REPORTED: 79.00 °C
//
COMPOUND: CCC(CC)CO
REPORTED: 58.33 °C
//
COMPOUND: CCCCCCCCCCCCCO
REPORTED: 116.00 °C
//
COMPOUND: C1COCCO1
REPORTED: 18.33 °C
//
COMPOUND: CC(C)C(C)C(C)CO (configuration not stated)
REPORTED: 60.00 °C
//
COMPOUND: CC(O)CCO (configuration not stated)
REPORTED: 108.89 °C
//
COMPOUND: OCC(CO)(CO)CO [2,2-bis(hydroxymethyl)propane-1,3-diol]
REPORTED: 240.00 °C
//
COMPOUND: OCc1ccc(CO)cc1 [[4-(hydroxymethyl)phenyl]methanol]
REPORTED: 187.80 °C
//
COMPOUND: C=CC1CC=CCC1 (configuration not stated)
REPORTED: 21.00 °C
//
COMPOUND: c1ccc(OCC2CO2)cc1 (configuration not stated)
REPORTED: 115.00 °C
//
COMPOUND: CCCCC(C)(O)CC (configuration not stated)
REPORTED: 54.00 °C
//
COMPOUND: CC(C)(C)CCO
REPORTED: 29.00 °C
//
COMPOUND: Clc1ccccn1
REPORTED: 64.00 °C
//
COMPOUND: C=CCOc1ccccc1
REPORTED: 62.00 °C

* * *

Cut-off 70 °C on flash point: below means condition met, at or above means condition not met.

COMPOUND: C[CH2][Pb]([CH2]C)([CH2]C)[CH2]C [TETRAETHYLLEAD]
ASSIGNED_CLASS: condition not met
//
COMPOUND: C=C[c-]1cccc1.[Fe+2].c1cc[cH-]c1 [VINYLFERROCENE]
ASSIGNED_CLASS: condition met
//
COMPOUND: CC[N-]C.CC[N-]C.CC[N-]C.CC[N-]C.[Hf+4] [HAFNIUM TETRAKIS(ETHYLMETHYLAMIDE)]
ASSIGNED_CLASS: condition met
//
COMPOUND: CC(C)(C)CCCCCC(=O)[O-].CC(C)(C)CCCCCC(=O)[O-].[Zn+2] [ZINC NEODECANOATE]
ASSIGNED_CLASS: condition not met
//
COMPOUND: CC(C)C[O-].CC(C)C[O-].CC(C)C[O-].CC(C)C[O-].[Ti+4] [TITANIUM ISOBUTOXIDE]
ASSIGNED_CLASS: condition not met
//
COMPOUND: C[O-].C[O-].C[O-].C[O-].[Ti+4] [TITANIUM METHOXIDE]
ASSIGNED_CLASS: condition met
//
COMPOUND: CC(C)(C)[O-].CC(C)(C)[O-].CC(C)(C)[O-].CC(C)(C)[O-].[Zr+4] [ZIRCONIUM t-BUTOXIDE]
ASSIGNED_CLASS: condition not met
//
COMPOUND: CCCCC(CC)C(=O)[O-].CCCCC(CC)C(=O)[O-].[Zn+2] (stereo not drawn) [ZINC 2-ETHYLHEXANOATE]
ASSIGNED_CLASS: condition not met

* * *

This listing pairs molecules with measured flash point.

MOLECULE: Cc1cccnc1 [3-picoline]
flash point, °C: 40

MOLECULE: C1=CC2C=CC1C2
flash point, °C: -11

MOLECULE: CCCC(C)O (centres undefined)
flash point, °C: 40

MOLECULE: CCCCCCCC(C)=O
flash point, °C: 69

MOLECULE: CC(C)(C)Cl
flash point, °C: -27

MOLECULE: CN(C)CCO
flash point, °C: 40

MOLECULE: O=CC=Cc1ccccc1
flash point, °C: 71

MOLECULE: C=CCCC=C
flash point, °C: -27

MOLECULE: CCC(O)CO (centres undefined)
flash point, °C: 93

MOLECULE: CCCCCCCc1ccccc1
flash point, °C: 95

MOLECULE: CCCCCCCCCC(C)=O
flash point, °C: 89

MOLECULE: CCCCCC=O
flash point, °C: 25

MOLECULE: CCCCN=C=O [butyl isocyanate]
flash point, °C: 29

MOLECULE: C=C(CC)CC
flash point, °C: -20

MOLECULE: C/C=C/C(=O)O
flash point, °C: 88

MOLECULE: OC1CCCCCC1
flash point, °C: 71

MOLECULE: COC
flash point, °C: -83

MOLECULE: c1cncnc1
flash point, °C: 31

MOLECULE: Cc1cccs1
flash point, °C: 7

MOLECULE: CC(=O)C1CC1
flash point, °C: 13

MOLECULE: CCCCC(C=O)CC (centres undefined)
flash point, °C: 46

MOLECULE: CCCCCCC#N
flash point, °C: 58

MOLECULE: CC(=O)O
flash point, °C: 39

MOLECULE: CCCCCCC(C)=O
flash point, °C: 62

MOLECULE: CC(N)CN (centres undefined)
flash point, °C: 33

MOLECULE: CC(=O)OCCC(C)C [isopentyl acetate]
flash point, °C: 25

MOLECULE: COC(CBr)OC
flash point, °C: 53

MOLECULE: CCCCc1ccccc1 [n-butylbenzene]
flash point, °C: 59

MOLECULE: OCCCCO
flash point, °C: 135

FYI, the data here is from a flash point compilation (Sun et al. 2020).
